System: MARIMO
Experiment: cell viability relative to vehicle control; higher = less cytotoxic;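 further: after 48 h exposure read by CellTiter-Glo luminescence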
Conditions: 10 µM; SRSF2 genotype: SRSF2 wt/wt
Counter-ions that a name gives are not always drawn.
Listing: cell viability of selected compounds

| COMPOUND | DISPLAY UNIT | cell viability |
| --- | --- | --- |
| Cn1cc(C2=C(c3cn(C4CCN(Cc5ccccn5)CC4)c4ccccc34)C(=O)NC2=O)c2ccccc21 | % | 101 |
| C[C@]12CCC(=O)C(O)=C1CC[C@@H]1[C@@H]2CC[C@]2(C)C(=O)CC[C@@H]12 | % | 107 |
| CC1=C2C(=O)[C@H]3[C@@H](CC=C4C[C@@H](O)CC[C@@]43C)[C@@H]2CC[C@]12O[C@@H]1C[C@H](C)CN[C@H]1[C@H]2C | % | 98.5 |
| CCCCCCC(=O)O[C@H]1CC[C@H]2[C@@H]3CCC4=CC(=O)CC[C@]4(C)[C@H]3CC[C@]12C [Testosterone Enanthate] | % | 61.8 |
| CC[C@]12C=CCN3CC[C@]4(C(=C(C(=O)OC)C1)Nc1ccccc14)[C@@H]32 [Tabersonine hydrochloride] | % | 13.8 |
| O=[N+]([O-])c1ncc[nH]1 | % | 101 |
| Cc1ccccc1-n1c(Cn2ncc3c(N)ncnc32)nc2cccc(C)c2c1=O | % | 93.7 |
| CCCCCCC[n+]1ccc(-c2cc[n+](CCCCCCC)cc2)cc1 [DHBP dibromide] | % | 76.1 |
| C#C[C@]1(O)C=C[C@H]2[C@@H]3CCC4=CC(=O)CC[C@@H]4[C@H]3CC[C@@]21CC | % | 97.2 |
| O=C(O)C(=O)CBr | % | 97.8 |
| CC(C)c1ccc2c(c1O)CC[C@H]1C3=C(CC[C@]21C)C(=O)OC3 [Triptophenolide] | % | 62.5 |
| C=C1CC[C@H]2[C@@H](C=C(C)C(=O)[C@@]3(O)C[C@H](C)[C@H](O)[C@@H]3[C@H]1O)C2(C)C | % | 102 |
| Cc1cc2c(C(C)C)c(O)c(O)c(C=O)c2c(O)c1-c1c(C)cc2c(C(C)C)c(O)c(O)c(C=O)c2c1O | % | 15.4 |
| CCC(COC(=O)c1cc(OC)c(OC)c(OC)c1)(c1ccccc1)N(C)C (configuration not stated) [Trimebutine] | % | 109 |
| O=C1C2CCN(CC2)C1(CO)CO | % | 73.8 |
| CCC1(c2cccc(O)c2)CCCCN(C)C1 (configuration not stated) [Meptazinol HCl] | % | 93.7 |
| NCC(O)c1ccc(O)cc1 (racemic) [(+,-)-Octopamine HCl] | % | 96.5 |

---

Test system: MARIMO
Assay: cell viability relative to vehicle control; higher = less cytotoxic
Conditions: 10 µM; SRSF2 genotype: SRSF2 P95H/wt
ENDPOINT NAME: cell viability (%)

| MOLECULE | EXPERIMENTAL SYSTEM | EXPERIMENTAL RESULT |
| --- | --- | --- |
| CC(C)=CCCC(C)(O)C1CCC2(C)C1C(O)CC1C3(C)CCC(O)C(C)(C)C3C(OC3OC(CO)C(O)C(O)C3O)CC12C [(20R)-Ginsenoside Rh1] | MARIMO | 111 |
| C=C[C@]12CN(C)[C@@H]3[C@H]4CO[C@H](C[C@H]41)[C@]1(C(=O)Nc4ccccc41)[C@@H]32 | MARIMO | 87.9 |
| N#CC(C#N)=Cc1ccc(O)c(O)c1 | MARIMO | 78.4 |
| CCN1CC2(OC(=O)c3ccccc3NC(C)=O)CCC(OC)C34C1C(CC23)C1(O)CC(OC)C2CC4C1(O)C2OC (stereo unspecified) [Lappaconitine] | MARIMO | 108 |
| CC[C@H]1[C@@H]2C[C@H]3[C@@H]4N(C)c5ccccc5[C@]45C[C@@H]([C@@H]2[C@H]5O)N3[C@@H]1O | MARIMO | 90.6 |
| C[C@]12CCC(=O)C[C@@H]1CC[C@@H]1[C@@H]2CC[C@]2(C)[C@@H](O)CC[C@@H]12 [Dihydrotestosterone (DHT)] | MARIMO | 95.3 |
| C[C@]12CC[C@H](O)C[C@@]1(O)CC[C@@H]1[C@@H]2CC[C@]2(C)[C@@H](C3=CC(=O)OC3)CC[C@]12O | MARIMO | 14.3 |
| CCN(CC)C(=O)c1ccc(C2=CC3(CCNCC3)Oc3cccc(O)c32)cc1 | MARIMO | 88.9 |
| C[C@H]1CC[C@@H]2N(C1)C[C@H]1[C@@H]3C[C@H]4[C@@H](C[C@H](O)[C@H]5C[C@@H](O)CC[C@@]54C)[C@@H]3CC[C@@H]1[C@]2(C)O | MARIMO | 97.3 |
| C[C@]12CC[C@H](O)CC1=CC[C@@H]1[C@@H]2CC[C@]2(C)C(=O)CC[C@@H]12 [Dehydroepiandrosterone (DHEA)] | MARIMO | 98.1 |
| COc1ccc2c(c1)/C(=C/c1cnc[nH]1)C(=O)N2 | MARIMO | 33.7 |

---

Test system: MARIMO
Assay: cell viability relative to vehicle control; higher = less cytotoxic
Conditions: 10 µM; SRSF2 genotype: SRSF2 P95H/wt

| COMPOUND | EXPERIMENTAL SYSTEM | cell viability (%) |
| --- | --- | --- |
| COc1ccc(C[C@H]2NC[C@H](O)[C@H]2OC(C)=O)cc1 | MARIMO | 13.6 |
| COC1=C[C@@H]2[C@@H]3Cc4ccc(OC)c(O)c4[C@]2(CCN3C)CC1=O [Sinomenine (Cucoline)] | MARIMO | 97.9 |
| Nc1ncnc2c1ccn2[C@@H]1O[C@H]([C@H](O)c2ccccc2)[C@@H](O)[C@H]1O | MARIMO | 83.5 |

---

Test system: OCI-AML2
Assay: cell viability relative to vehicle control; higher = less cytotoxic
Details: 10 µM; SRSF2 genotype: P95H/wt
Where a name gives a salt, the structure may show the parent alone.
Listing: cell viability of selected compounds
ENDPOINT NAME: cell viability

| COMPOUND | EXPERIMENTAL RESULT |
| --- | --- |
| COC1=C[C@]23CCCN2CCc2cc4c(cc2[C@@H]3[C@@H]1O)OCO4 | 90.8% |
| Cc1cccc(C)c1NC1=NCCCS1 [Xylazine HCl] | 89.1% |
| CCC(COC(=O)c1cc(OC)c(OC)c(OC)c1)(c1ccccc1)N(C)C (centres undefined) [Trimebutine maleate] | 89.9% |
| O=C(C[S+]([O-])C(c1ccccc1)c1ccccc1)NO (centres undefined) | 91.8% |

---

Listing: cell viability of selected molecules
Tested on: MARIMO
Test: cell viability relative to vehicle control; higher = less cytotoxic
Conditions: 10 µM; SRSF2 genotype: SRSF2 P95H/wt
Structures can show the parent of a compound that is named as a salt.

| MOLECULE | cell viability |
| --- | --- |
| C[C@H]1CCC/C=C/[C@@H]2C[C@H](O)C[C@H]2[C@H](O)/C=C/C(=O)O1 [Brefeldin A] | 9.22% |
| COC1=C[C@@H]2[C@@H]3Cc4ccc(OC)c(O)c4[C@]2(CCN3C)CC1=O [Sinomenine hydrochloride] | 102% |
| CN1CCN(c2nc3ccccc3nc2Cl)CC1 | 93.1% |
| COc1ccc(N(C(=O)Oc2c(C)cccc2C)c2ccnc(Nc3ccc(N4CCN(C)CC4)cc3)n2)c(OC)c1 | 72.3% |
| NCC(CC(=O)O)c1ccccc1 (configuration not stated) [Phenibut] | 102% |
| CN1C(=O)CCS(=O)(=O)C1c1ccc(Cl)cc1 (configuration not stated) [Chlormezanone (Trancopal)] | 97% |
| O=C(O)CNC(=O)c1c(O)c2ccccc2n(Cc2ccccc2)c1=O | 94.3% |
| C/C=C(\C)C(=O)N[C@@H](c1ccccc1)[C@@H](O)C(=O)O[C@H]1C[C@@]2(O)[C@@H](OC(=O)c3ccccc3)[C@@H]3[C@]4(OC(C)=O)CO[C@@H]4C[C@H](O)[C@@]3(C)C(=O)[C@H](OC(C)=O)C(=C1C)C2(C)C [Cephalomannine] | 7.43% |
| Cc1cc2c(C(C)C)c(O)c(O)c(C=O)c2c(O)c1-c1c(C)cc2c(C(C)C)c(O)c(O)c(C=O)c2c1O | 11.7% |
| COC(=O)C[C@](O)(CCC(C)(C)O)C(=O)O[C@@H]1C(OC)=C[C@]23CCCN2CCc2cc4c(cc2[C@H]13)OCO4 [Harringtonine] | 8.47% |
| Cc1c(Cl)c(OCC(=O)N2CCN(C)CC2)nc2sc(C(=O)NC3CC3)c(N)c12 | 40.5% |
| O=C(CBr)c1ccc(O)cc1 [PTP Inhibitor I] | 103% |
